- test: Cmax in mouse at 1 mg/kg, iv or 2 mg/kg, po
- Assay type: ADME, organism-based
- recorded-conditions: in vivo
observed-property: Cmax (µM)
Use µM as the unit, but write only the number.

compound: O=C(O)c1n[nH]c2c1CC(c1cc(F)ccc1F)CC2 (racemic)
measurement-unit: µM
Cmax: 3.3

Now consider the entry below.
Qu. Please give the documented Cmax of O=C(O)c1n[nH]c2c1CC(c1cccnc1F)CC2 (racemic)
Ans. 2.3

====

Reported values of Activity for individual entries
- target-under-test: Hydroxycarboxylic acid receptor 2 (Homo sapiens)
- test: Displacement of [3H]niacin from human niacin receptor expressed in […] cells at 25 uM in presence of 5% human serum
- Assay type: cell-based

Sample answers from the record:
molecule: O=C(O)c1n[nH]c2c1CC(c1ccccc1F)CC2 (racemic)
Activity: 18%
--
molecule: O=C(O)c1n[nH]c2c1CC(c1ccnc(F)c1)CC2 (racemic)
Activity: 69%

Qu. Give reported Activity value for Fc1ccc(F)c(C2CCc3[nH]nc(-c4nnn[nH]4)c3C2)c1 (racemic)
Ans. 17%

Qu. Please look at this molecule and report its Activity: O=C(O)c1n[nH]c2c1CC(c1cccnc1F)CC2 (racemic)
Ans. 88%

Qu. Please indicate Activity recorded for O=C(O)c1n[nH]c2c1CC(c1ccccc1)CC2 (racemic)
Ans. 35%

Qu. // Input: O=C(O)c1n[nH]c2c1CC(c1cc(F)ccc1F)CC2 (stereo not drawn) . Output its Activity only.
Ans. 84%

Qu. Fill in Activity for record O=C(O)c1n[nH]c2c1CC(c1ccccc1Cl)CC2 (racemic)
Ans. 20%

Qu. Answer with the recorded Activity of Fc1ncccc1C1CCC2=C(C1)C(=C1N=NN=N1)N=N2 (stereo not drawn) only.
Ans. 75%
